Every entry's value here was drawn from patent US20240376156A1.

biological target: T1, Biotinylated CD3 protein (Abcam Cat #ab205994) (human, UniProt P04234 22-105); experiment: BLI (Octet); biotinylated target on streptavidin sensors, miniprotein as analyte
T1 construct: also called CD3δ; CD3 delta chain
T1 sequence (P04234 22-105 limits assumed): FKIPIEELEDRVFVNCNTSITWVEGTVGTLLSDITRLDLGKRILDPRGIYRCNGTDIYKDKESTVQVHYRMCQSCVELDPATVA
experimentalEndpoint: pKd
Please treat pKd as minus the base-10 logarithm of the molar concentration.

In: Which measured pKd value corresponds to CD3δ_mb (designed binder) MSHHHHHHHHSENLYFQSGGGNHIACEIHNPEAAKEIAKVANVRRVYFIKQPGNRYFVLLKNADPEGVKKVRSKYNVRCVIRE ?
Out: 6.21
